Molecular target: GST-Nv-NF-kB (Cys allele) (Nematostella vectensis, UniProt E5G601 2-411)
Sequence: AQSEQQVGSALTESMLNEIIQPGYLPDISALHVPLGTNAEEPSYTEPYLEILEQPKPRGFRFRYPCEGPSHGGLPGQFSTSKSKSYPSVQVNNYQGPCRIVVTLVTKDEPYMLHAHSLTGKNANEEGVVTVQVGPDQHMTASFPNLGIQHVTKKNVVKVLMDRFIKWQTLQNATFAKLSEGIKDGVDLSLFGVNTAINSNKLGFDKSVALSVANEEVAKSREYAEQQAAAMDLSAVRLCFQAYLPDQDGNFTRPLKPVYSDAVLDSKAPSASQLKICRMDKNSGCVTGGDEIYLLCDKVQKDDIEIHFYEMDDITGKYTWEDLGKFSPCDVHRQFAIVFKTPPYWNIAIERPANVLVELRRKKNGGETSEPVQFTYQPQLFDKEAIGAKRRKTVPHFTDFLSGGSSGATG
Assay: protein-binding microarray (PBM); PBM: ~300 nM protein, 6 mM HEPES pH 7.8, 80 mM KCl, 0.5 mM EDTA, 0.5 mM EGTA, 6% glycerol, 35 ng/ul poly-dIdC, 1% milk, 1 h, room temperature; high values mean tight binding
Settings: dsDNA, one strand shown
Property: binding signal (z-score)
Give the number; z-score is assumed, so skip it.

The examples below pair each entry with its known result.
>>> recorded_value("CCGATTAACATCAAAAGGGAATTTGATGTTAATCGGGTCTTGATTCGCTTGACGCTGCTG")
6.76
>>> recorded_value("CCGATTAACATCAGGGGTTACCCTGATGTTAATCGGGTCTTGATTCGCTTGACGCTGCTG")
5.58
>>> recorded_value("CCGATTAACATCAGGACAACCCCTGATGTTAATCGGGTCTTGATTCGCTTGACGCTGCTG")
3.16
>>> recorded_value("CCGATTAACATCATGGGGGGTAATGATGTTAATCGGGTCTTGATTCGCTTGACGCTGCTG")
3.18

Q. What binding signal value was documented for this sequence, CCGATTAACATCAGGGGAAACTATGATGTTAATCGGGTCTTGATTCGCTTGACGCTGCTG ?
A. 7.81

---

Biological target: GST-Dm-Relish (Drosophila melanogaster, UniProt Q94527 99-473)
Sequence: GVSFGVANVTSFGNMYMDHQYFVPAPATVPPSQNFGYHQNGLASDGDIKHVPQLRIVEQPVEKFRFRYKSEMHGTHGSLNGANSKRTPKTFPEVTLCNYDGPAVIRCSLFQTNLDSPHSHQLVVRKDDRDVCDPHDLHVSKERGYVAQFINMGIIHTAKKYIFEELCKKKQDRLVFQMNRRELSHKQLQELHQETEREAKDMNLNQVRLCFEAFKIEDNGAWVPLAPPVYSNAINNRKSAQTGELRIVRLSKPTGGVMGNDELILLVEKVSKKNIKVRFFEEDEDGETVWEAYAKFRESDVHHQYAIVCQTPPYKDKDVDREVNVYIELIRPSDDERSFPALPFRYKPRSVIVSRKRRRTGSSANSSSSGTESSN
Assay: protein-binding microarray (PBM); PBM: ~300 nM protein, 6 mM HEPES pH 7.8, 80 mM KCl, 0.5 mM EDTA, 0.5 mM EGTA, 6% glycerol, 35 ng/ul poly-dIdC, 1% milk, 1 h, room temperature; Ap Aiptasia and Nv Nematostella (sea anemones) / Co Capsaspora / Aq Amphimedon (sponge) / Dm Drosophila / Hu human; RHD is the Rel homology domain; high values mean tight binding
Settings: dsDNA, one strand shown
Property: binding signal (z-score)
Give the number; z-score is assumed, so skip it.

The examples below pair each entry with its known result.
>>> recorded_value("CCGATTAACATCAGGAAGCCCCCTGATGTTAATCGGGTCTTGATTCGCTTGACGCTGCTG")
7.8
>>> recorded_value("CCGATTAACATCACCACCCCCCCTGATGTTAATCGGGTCTTGATTCGCTTGACGCTGCTG")
4.58
>>> recorded_value("CCGATTAACATCAGGTAATTTACTGATGTTAATCGGGTCTTGATTCGCTTGACGCTGCTG")
5.32
>>> recorded_value("CCGATTAACATCAGGGGAGCCCCTGATGTTAATCGGGTCTTGATTCGCTTGACGCTGCTG")
8.74
>>> recorded_value("CCGATTAACATCACAACGGAATGTGATGTTAATCGGGTCTTGATTCGCTTGACGCTGCTG")
1.37

Q. What binding signal value was documented for this sequence, CCGATTAACATCAGGGTATTTACTGATGTTAATCGGGTCTTGATTCGCTTGACGCTGCTG ?
A. 7.1

Q. What binding signal value was documented for this sequence, CCGATTAACATCAACGAAACCCCTGATGTTAATCGGGTCTTGATTCGCTTGACGCTGCTG ?
A. 4.41

Q. What binding signal value was documented for this sequence, CCGATTAACATCAAAACCCCCCGTGATGTTAATCGGGTCTTGATTCGCTTGACGCTGCTG ?
A. 10.2

Q. What binding signal value was documented for this sequence, CCGATTAACATCAAGGGAGTTCCTGATGTTAATCGGGTCTTGATTCGCTTGACGCTGCTG ?
A. 5.02

Q. What binding signal value was documented for this sequence, CCGATTAACATCAAATACTCCCCTGATGTTAATCGGGTCTTGATTCGCTTGACGCTGCTG ?
A. 3.34

Q. What binding signal value was documented for this sequence, CCGATTAACATCACCATTTCCCCTGATGTTAATCGGGTCTTGATTCGCTTGACGCTGCTG ?
A. 2.11

Q. What binding signal value was documented for this sequence, CCGATTAACATCACGGGTTTCCCTGATGTTAATCGGGTCTTGATTCGCTTGACGCTGCTG ?
A. 7.38

Q. What binding signal value was documented for this sequence, CCGATTAACATCAGGAAGGCCCCTGATGTTAATCGGGTCTTGATTCGCTTGACGCTGCTG ?
A. 4.9

Q. What binding signal value was documented for this sequence, CCGATTAACATCAAAAATTGCCCTGATGTTAATCGGGTCTTGATTCGCTTGACGCTGCTG ?
A. 1.5
